log10 IC50 reference
# Test system: HCT-116
# Method: Antiproliferative activity against human HCT-116 cells assessed as inhibition of cell growth incubated for 72 hrs by MTT assay
# Type: functional, cell-based
# Conditions: HCT-116, 72 h
Would you kindly interpret these values as log10 of IC50 expressed in nM?

// worked examples, log10 IC50 included
[
  {
    "Structure smiles string": "N#Cc1c(Cl)c2ccccc2n2c1nc1cccnc12",
    "Experimental target": "HCT-116",
    "Reported endpoint": "log10 IC50",
    "Result value": 3.48
  },
  {
    "Structure smiles string": "N#Cc1c(N2CCNCC2)c2ccccc2n2c1nc1ncccc12",
    "Experimental target": "HCT-116",
    "Reported endpoint": "log10 IC50",
    "Result value": 3.54
  },
  {
    "Structure smiles string": "N#Cc1cc2ccc(N3CCNCC3)cc2n2c1nc1ncccc12",
    "Experimental target": "HCT-116",
    "Reported endpoint": "log10 IC50",
    "Result value": 2.95
  }
]

Prompt: Item under review: N#Cc1c(N2CCCCC2)c2ccc(N3CCCCC3)cc2n2c1nc1ncccc12 . Reported log10 IC50?
Completion: 3.26

Prompt: Entry to check: CC(C)CNc1c(C#N)c2nc3ncccc3n2c2ccccc12
Completion: 4.15

Prompt: For CN(C)CCCNc1c(C#N)c2nc3ncccc3n2c2ccccc12 then?
Completion: 2.90

Prompt: Moving on to N#Cc1c(Cl)c2ccc(F)cc2n2c1nc1ncccc12
Completion: 3.54

Prompt: Same lookup for N#Cc1c(Cl)c2ccccc2n2c1nc1ncccc12 , please.
Completion: 2.00

Prompt: Same for CN(C)CCCNc1c(C#N)c2nc3cccnc3n2c2ccccc12
Completion: 2.95

Prompt: Now the same for N#Cc1c(N2CCCCC2)c2ccccc2n2c1nc1cccnc12
Completion: 4.67

Prompt: Input CC(C)CNc1ccc2c(NCC(C)C)c(C#N)c3nc4cccnc4n3c2c1
Completion: 3.48

Prompt: Same for CN(C)CCCNc1ccc2cc(C#N)c3nc4cccnc4n3c2c1
Completion: 2.60

Prompt: Also N#Cc1c(N2CCNCC2)c2ccccc2n2c1nc1cccnc12 , if possible.
Completion: 3.56

Prompt: Next compound up: CC(C)CNc1ccc2c(NCC(C)C)c(C#N)c3nc4ncccc4n3c2c1
Completion: 3.57

Prompt: Note, next up: CN(C)CCCNc1ccc2cc(C#N)c3nc4ncccc4n3c2c1
Completion: 3.36

Prompt: Same read-out for N#Cc1cc2ccc(N3CCNCC3)cc2n2c1nc1cccnc12 ?
Completion: 2.60

Prompt: N#Cc1c(Cl)c2ccc(F)cc2n2c1nc1cccnc12 , same question.
Completion: 3.48

Prompt: Same question for CC(C)CNc1ccc2cc(C#N)c3nc4cccnc4n3c2c1 please.
Completion: 2.70

Prompt: Another compound to check: N#Cc1cc2ccc(F)cc2n2c1nc1cccnc12
Completion: 3.70

Prompt: And for N#Cc1c(N2CCCCC2)c2ccc(N3CCCCC3)cc2n2c1nc1cccnc12 ?
Completion: 3.00
